Origin of values: patent US20230382904A1

pIC50: −log10 of the molar value.
UniProt:O43283 measurements of pIC50, listed per entry.
reported.metric: pIC50

| compound | test.target | reported.metric | observed.measurement |
| --- | --- | --- | --- |
| CC(C)NC(=O)c1cc(-c2csc(C(=O)N[C@@H](C)c3ccccc3)c2)cn2nc(N)nc12 [Compound 20] | UniProt:O43283 | pIC50 | 6.91 |

(P) Nc1nc2ccc(-c3csc(C(=O)NC(CO)c4ccc(F)cc4)c3)cn2n1 (centres unmarked) [Compound 337]
(Q) Nc1nc2ccc(-c3csc(C(=O)NCc4cccc(OCCN5CCOCC5)c4)c3)cn2n1 [Compound 207]
(R) CC[C@H](NC(=O)c1cc(-c2cc(C(=O)N[C@@H](C)CO)c3nc(N)nn3c2)cs1)c1ccccc1 [Compound 77]
(S) CC(C)NC(=O)c1cc(-c2csc(C(=O)NC(COC(F)(F)F)c3ccccc3)c2)cn2nc(N)nc12 (centres unmarked) [Compound 117]
(T) C[C@H](NC(=O)c1cc(-c2cc(C(=O)N[C@H](CO)C(F)(F)F)c3nc(N)nn3c2)cs1)c1ccc(F)cc1 [Compound 109]
Challenge: Please list these compounds in decreasing order of pIC50. // ordering of labels required in reply
Response given: R, T, S, P, Q
(R: 7.44, T: 6.92, S: 6.62, P: 5.85, Q: 4.57)

###

LZK (Homo sapiens (Human), UniProt O43283) measurements of IC50, listed per entry.
Sequence (O43283 168-409): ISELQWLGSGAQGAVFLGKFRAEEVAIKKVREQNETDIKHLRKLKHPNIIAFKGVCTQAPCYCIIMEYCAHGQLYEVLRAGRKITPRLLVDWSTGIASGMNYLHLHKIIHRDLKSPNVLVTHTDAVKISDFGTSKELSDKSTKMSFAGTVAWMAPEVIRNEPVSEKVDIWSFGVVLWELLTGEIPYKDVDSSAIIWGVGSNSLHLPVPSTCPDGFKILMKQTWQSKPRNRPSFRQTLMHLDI
reported.metric: IC50 (µM)

Worked examples follow.
| molecule | unit.abbreviation | observed.measurement |
| --- | --- | --- |
| COc1cccc(CN(C)C(=O)c2cc(-c3ccc4nc(N)nn4c3)cs2)c1 | µM | 7.6 |
| CC[C@H](NC(=O)c1cc(-c2ccc3nc(N)nn3c2)cs1)c1ccc(F)cc1 | µM | 1.7 |
| C[C@H](NC(=O)c1cc(-c2cc(C(F)(F)F)c3nc(N)nn3c2)cs1)c1ccc(F)cc1 | µM | 2.4 |

(a) Nc1nc2ccc(-c3csc(C(=O)N[C@@H](CCO)c4ccc(F)cc4)c3)cn2n1
(b) CC(C)c1csc(CNC(=O)c2cc(-c3ccc4nc(N)nn4c3)cs2)n1
Challenge: Out of a and b , name the one with the higher IC50. Selection: enter the item's label.
Response given: b
(b: 7.6 µM, a: 5.1 µM)

(a) CCNC(=O)c1cc(-c2csc(C(=O)N[C@@H](CC)c3ccccc3)c2)cn2nc(N)nc12
(b) CC[C@H](NC(=O)c1cc(-c2cc(-c3cnn(CC(F)(F)F)c3)c3nc(N)nn3c2)cs1)c1ccc(F)cc1
Challenge: Out of a and b , name the one with the higher IC50. Selection: enter the item's label.
Response given: b

(P) CC(C)NC(=O)c1cc(-c2csc(C(=O)NC3CCCCC3)c2)cn2nc(N)nc12
(Q) CC(C)c1nnc(-c2cc(-c3csc(C(=O)N[C@@H](C)c4ccc(F)cc4)c3)cn3nc(N)nc23)s1
(R) C[C@@H](CO)NC(=O)c1cc(-c2csc(C(=O)NCc3ccc(F)cc3)c2)cn2nc(N)nc12
Challenge: Write the entries in order, lowest recorded IC50 first. // ordering of labels required in reply
Response given: R, P, Q

(a) Nc1nc2ccc(-c3csc(C(=O)NC(c4ccccc4)C4CC4)c3)cn2n1 (centres unmarked) [Compound 346]
(b) Nc1nc2ccc(-c3csc(C(=O)NCc4ccc(CN5CCOCC5)cc4)c3)cn2n1
Challenge: Input pair: a , b . Output: entry with lower IC50. Selection: enter the item's label.
Response given: b
(b: 17 µM, a: 29 µM)
